test system: UACC-257 melanoma; experiment: NCI tumour cell line growth inhibition, 48 h
Answer each item with its documented TGI.

Batch lookup, TGI per entry.
1. CCOC(=O)N[C@@H]1C(CC(=O)OC)O[C@H]2OC(C)(C)O[C@H]21 (stereo partly specified)
2. O=C(c1cccs1)N1CCc2ccccc2C1
3. c1cnn(CN(Cn2cccn2)Cn2cccn2)c1
4. O=C(CCc1nc(=S)[nH][nH]1)Nc1ccccc1Cl
5. CCCC1=C(CC)C(C(=O)Nc2c(C)cccc2C)=NC(S)N1 (stereo unspecified)
6. CCOC(=O)c1ccc(NCc2ccc3oc(=O)c(-c4ccccc4)nc3c2)cc1
7. C=CCCCCC/C=C\[C@@H](O)C#CC#C/C=C/CO
8. C/C(=N\Nc1ccc(Cl)cn1)c1ccc2ccccc2n1

1: > 100 µM; 2: > 100 µM; 3: > 100 µM; 4: > 100 µM; 5: > 100 µM; 6: 42 µM; 7: > 100 µM; 8: 97.3 µM

Each compound below has a recorded value; state its TGI.
1. CCCCC1Cc2ccccc2-c2nc3ccccc3n21 (stereo unspecified)
2. CCOC(=O)CNC(=O)N(CC)C12CC3CC(CC(C3)C1)C2

1. 32.2 µM
2. 322 µM

// for each compound below, give its TGI
1. COc1cc2c3c(n(CCCN)c(=O)c2cc1OC)-c1ccc(C#N)cc1C3=O
2. COc1cc2oc(-c3ccc(O)cc3)c(OC)c(=O)c2c(O)c1OC
3. CN(C(=O)Cc1cccc(N=C=S)c1)[C@H]1CCCC[C@@H]1N1CCCC1
4. CCc1cc(Cc2cc(CC)c(NC(=O)C(=O)CC(=O)c3sc(-c4cccnc4)nc3C)c(CC)c2)cc(CC)c1NC(=O)C(=O)CC(=O)c1sc(-c2cccnc2)nc1C

1. > 100 µM
2. > 100 µM
3. 28.9 µM
4. > 100 µM

Please look at the items below and tell me TGI for each one, in order.
1. COc1cc(-c2nc3ccccn3c2/N=C/c2cc(Br)cc(Br)c2O)ccc1O
2. COc1ccc(/C=C/c2c(C(=O)/C=C/c3ccccc3)c(C)nc3ccccc23)cc1
3. O=C(N/N=C\C=C\c1ccc([N+](=O)[O-])o1)C(=O)N/N=C\C=C\c1ccc([N+](=O)[O-])o1
4. N#C/C(=C/NC(N)=S)C(N)=O
5. COc1ccc(C2=C(Cl)c3cc(OC)c(OC)cc3C2Cl)cc1 (stereo unspecified)
6. CCOC(=O)c1cc2c3ccn(Cc4ccccc4)c3c3c(C)[nH]oc3c2n1

75.2 µM
3.21 µM
> 100 µM
> 100 µM
39.6 µM
> 100 µM

Quick one: give measured TGI for "CC(C)OC(=O)/C=C/C(=O)O/C=C/[N+](=O)[O-]" > 100 µM

====

test system: HCC-2998 colon; assay: NCI tumour cell line growth inhibition, 48 h
measured.quantity: TGI (µM)
Answers are plain numbers, in µM.

Field: example entries. Status: answers known.
mol	target.or.test.system	TGI [µM]
CC(C)=C[C@H]1CCC2(OCCO2)[C@]1(C)COCc1ccccc1	HCC-2998 colon	37.4
COC1=C(OC)C(=O)C(Cc2c(C)nc3sccn23)=C(C)C1=O	HCC-2998 colon	40.3

The following compounds each have a reported value; give each one's TGI.
1. CCNCCNc1cc(-c2ccc(C(F)(F)F)cc2)c(C#N)c2nc3ccccc3n12
2. C=C1C(=O)O[C@H]2[C@H]1CC/C(COC(=O)NCCCCNC(=O)OC/C1=C/CC[C@@]3(C)O[C@H]3[C@H]3OC(=O)C(=C)[C@@H]3CC1)=C\CC[C@@]1(C)O[C@@H]21
3. C1=Cc2cc3c(c4nccc(c24)N1)OCO3

[3.4, 4.78, 28.6]

The reported measurements were obtained from PubChem BioAssay (NCI).
